The following molecules are listed with their measured pIC50 values.
system: MIA PaCa-2 (KRAS G12C) cells; assay: Cellular pERK HTRF assay (KRAS_G12C pERK assay); type: cell-based; conditions: Homo sapiens, cells incubated with compound 4 hours, read-out: G12C_pERK IC50
pIC50: −log10 of the molar value.

Field: example entries. Status: answers known.
C=Cc1ncc2n1CCN(c1nc(OC[C@H]3CCCN3C)nc3c1CCN(c1cc(O)cc4ccccc14)C3)C2	5.30 to 6.00
C=Cc1ncc2n1CCN(c1nc(OCCCN3CCOCC3)nc3c1CCN(c1cccc4cccc(Cl)c14)C3)C2	5.30 to 6.00
C=Cc1ncc2n1CCN(c1nc(OCCCN3CCCCC3)nc3c1CCN(c1cccc4cccc(Cl)c14)C3)C2	5.30 to 6.00
C=Cc1ncc2n1CCN(c1nc(OCCCN3CCOCC3)nc3c1CCN(c1cccc4ccccc14)C3)C2	5.30 to 6.00
C=Cc1ncc2n1CCN(c1nc(OC[C@@H]3CCCN3C)nc3c1CCN(c1cccc4cccc(Cl)c14)C3)C2	5.30 to 6.00
C=Cc1ncc2n1CCN(c1nc(OCC3CCCN(C)C3)nc3c1CCN(c1cccc4cccc(Cl)c14)C3)C2 (centres unmarked)	5.30 to 6.00
C=Cc1ncc2n1CCN(c1nc(OC[C@@H]3CCCN3C)nc3c1CCN(c1cccc4ccccc14)C3)C2	5.30 to 6.00

Continue with the molecule presented below.
Ask: Lab note: MIA PaCa-2 (KRAS G12C) cells assay, enter pIC50 for C=Cc1ncc2n1CCN(c1nc(OC[C@@H]3CCCN3C)nc3c1CCN(c1cc(O)cc4ccccc14)C3)C2 here
Reply: 5.30 to 6.00
